- Tested on: Mus musculus
- protocol: Average change in weight in mice bearing the L1210 Leukemia, when compound (20 mg/kg) was administered once daily beginning 24 hr after tumor implantation, for 6 consecutive days.
- Assay type: functional
measured-quantity: Average change in body weight (%)
Report only the number, with the unit % understood.

// solved cases for Average change in body weight follow
For the compound shown here, "O=C1C(N2CC2)=C(N2CC2)C(=O)c2c(OS(=O)(=O)c3ccc(Br)cc3)cccc21" , give the reported Average change in body weight.
12.2

Endpoint output: Average change in body weight of "CCCCCCCCCCCCCCCCS(=O)(=O)Oc1cccc2c1C(=O)C(N1CC1)=C(N1CC1)C2=O" . Value?
13

Need Average change in body weight, item "CN(C)c1cccc2c(S(=O)(=O)Oc3cccc4c3C(=O)C(N3CC3)=C(N3CC3)C4=O)cccc12"
2.2

I would be grateful if you could share the reported Average change in body weight for "O=C1C(N2CC2)=C(N2CC2)C(=O)c2c(OS(=O)(=O)c3cccc4ccccc34)cccc21" .
14.6

Look at this compound and give its reported Average change in body weight. "O=C1C(N2CC2)=C(N2CC2)C(=O)c2c(OS(=O)(=O)c3ccccc3)cccc21"
-6.2

Further cases:
// query Average change in body weight value for entry "O=C1C(N2CC2)=C(N2CC2)C(=O)c2c(OS(=O)(=O)c3ccc(Cl)cc3)cccc21"
4.2
